The origin of these recorded values is ChEMBL document CHEMBL1140274.

System: Trichophyton benhamiae
ASSAY TEXT: In-vitro minimum inhibitory concentration against the growth of Trichophyton mentagrophytes
Type: functional, Trichophyton mentagraphytes
Recorded MIC values for a group of compounds are listed next.

COMPOUND	MEASUREMENT
O=C1c2ccccc2C(=O)c2c1n[nH]c2C(=O)NNc1ccccc1	> 50 mg/L
NNC(=O)c1[nH]nc2c1C(=O)c1ccccc1C2=O	> 50 mg/L
CCCCNC(=O)c1[nH]nc2c1C(=O)c1ccccc1C2=O	> 50 mg/L
CCOC(=O)c1[nH]nc2c(O)c3ccccc3c(O)c12	25 mg/L
CCOC(=O)c1[nH]nc2c1C(=O)c1ccccc1C2=O	> 50 mg/L
O=C(NNc1ccc([N+](=O)[O-])cc1[N+](=O)[O-])c1[nH]nc2c(O)c3ccccc3c(O)c12	> 50 mg/L
O=C1c2ccccc2C(=O)c2c1n[nH]c2C(=O)NCCO	> 50 mg/L
CNC(=O)c1[nH]nc2c1C(=O)c1ccccc1C2=O	> 50 mg/L
Clc1ccc(COC(Cn2ccnc2)c2ccc(Cl)cc2Cl)c(Cl)c1 (stereo not drawn)	< 0.78 mg/L
C[C@@H]1[C@H](O)[C@@H](C)/C=C/C=C/C=C/C=C/C=C/C=C/C=C/[C@H](O[C@@H]2O[C@H](C)[C@@H](O)[C@H](N)[C@@H]2O)C[C@@H]2O[C@](O)(C[C@@H](O)C[C@@H](O)[C@H](O)CC[C@@H](O)C[C@@H](O)CC(=O)O[C@H]1C)C[C@H](O)[C@H]2C(=O)O	1.56 mg/L

Log: Trichophyton benhamiae, compound C=CCNC(=O)c1[nH]nc2c1C(=O)c1ccccc1C2=O , MIC = > 50 mg/L

Form field, MIC with Trichophyton benhamiae, item NNC(=O)c1[nH]nc2c(O)c3ccccc3c(O)c12 : > 50 mg/L

Query OC(Cn1cncn1)(Cn1cncn1)c1ccc(F)cc1F on Trichophyton benhamiae; MIC returned: 0.5 mg/L
